Test system: HaCaT cells
assay_summary: Cytotoxic activity, sulforhodamine B (SRB) staining
Type: cell-based
cond: Homo sapiens, 24 h treatment, mean ± SE, read-out: HaCaT IC50
reported_metric: pIC50
One number for each entry, as −log10 of the molar value.

Return reported pIC50 values for all items listed beneath this line.
1. Oc1cccc(/C=C/c2ccc3cccc(O)c3n2)c1O [Compound 3b]
2. Oc1ccc(/C=C/c2ccc3cccc(O)c3n2)cc1O [Compound 3d]
3. COc1cc(CCc2ccc3cccc(O)c3n2)ccc1O [Compound 4b]

Completion:
[4.24, 3.79, 3.96]

###

System: SW620 cells
assay_summary: Cytotoxic activity, sulforhodamine B (SRB) staining
Type: cell-based, human
cond: Homo sapiens, SW-620, 48 h, read-out: SW620 IC50
reported_metric: pIC50
One number for each entry, as −log10 of the molar value.

Recorded result, Oc1cccc2cccnc12 [Compound 8-HQ, 8-hydroxyquinoline, reference compound] , pIC50: 4.44

###

System: HaCaT cells
assay_summary: Cytotoxic activity, sulforhodamine B (SRB) staining
Assay type: cell-based
cond: Homo sapiens, 24 h treatment, mean ± SE, read-out: HaCaT IC50
Exercise: state measured pIC50 for each of the molecules provided.
Answers are plain numbers, as −log10 of the molar value.

Example entries begin here.
Recorded result, Oc1ccc(/C=C/c2ccc3cccc(O)c3n2)c(O)c1 [Compound 3c] , pIC50: 3.96

Recorded result, Oc1ccc(/C=C/c2ccc3cccc(O)c3n2)cc1 [Compound 3a] , pIC50: 3.63

Return reported pIC50 values for all items listed beneath this line.
1. Oc1ccc(/C=C/c2cc(O)cc(O)c2)cc1 [Resveratrol, resveratrol, reference compound]
2. Oc1ccc(CCc2ccc3cccc(O)c3n2)cc1 [Compound 4a, 2-(4-hydroxyphenethyl)quinolin-8-ol]

Completion:
1: 3.74; 2: 4.19

###

Test system: SW480 cells
assay_summary: Cytotoxic activity, sulforhodamine B (SRB) staining
Type: cell-based, human
cond: Homo sapiens, SW480; 48 h treatment, mean ± SE; read-out: SW480 IC50
reported_metric: log10 of IC50 (log10 of the value in µM)
Parameter value (number): base-10 log of IC50 in µM.

Example entries begin here.
So the reported log10 of IC50 for Oc1cccc(/C=C/c2ccc3cccc(O)c3n2)c1O [Compound 3b] , on SW480 cells, turned out to be 1.59

So the reported log10 of IC50 for Oc1ccc(/C=C/c2ccc3cccc(O)c3n2)c(O)c1 [Compound 3c] , on SW480 cells, turned out to be 1.58

So the reported log10 of IC50 for O=c1[nH]cc(F)c(=O)[nH]1 [Compound 5-FU, 5-Fluorouracil, reference compound] , on SW480 cells, turned out to be 2.87

So the reported log10 of IC50 for Oc1ccc(CCc2ccc3cccc(O)c3n2)cc1 [Compound 4a, 2-(4-hydroxyphenethyl)quinolin-8-ol] , on SW480 cells, turned out to be 1.80

So the reported log10 of IC50 for Oc1ccc(/C=C/c2cc(O)cc(O)c2)cc1 [Resveratrol, resveratrol, reference compound] , on SW480 cells, turned out to be 2.13

Return reported log10 of IC50 values for all items listed beneath this line.
1. COc1cc(CCc2ccc3cccc(O)c3n2)ccc1O [Compound 4b]
2. Oc1ccc(/C=C/c2ccc3cccc(O)c3n2)cc1 [Compound 3a]
3. Oc1ccc(/C=C/c2ccc3cccc(O)c3n2)cc1O [Compound 3d]

Completion:
1: 1.64; 2: 1.42; 3: 1.63
